- Tested on: NCI-H23 lung
- experiment.summary: NCI tumour cell line growth inhibition, 48 h
measured.property: TGI (µM)
// return numeric value only (unit: µM, not printed)

Field: example entries. Status: answers known.
Cn1ccnc1Oc1ccc(Cl)cc1 | 39.5
COc1ccc(Nc2ccc([N+](=O)[O-])cc2[N+](=O)[O-])cc1CN(CCCl)CCCl | 5.77
O=C(c1ccccc1)c1c(CC(O)c2ccncc2)n(C(=O)c2ccccc2)c2ccccc12 (centres undefined) | 35

Now, please, on to the next compound.
In: Checklist item: TGI tested on NCI-H23 lung, entry "C[n+]1c2ccccc2nc2c(N)cc(N)cc21" , value?
Out: 26.6

----------
# GI50 per entry
- Tested on: UO-31 renal
- experiment.summary: NCI tumour cell line growth inhibition, 48 h

Here are 8 molecules together with their reported answers.
O=C(Nc1ccccc1OC(=O)c1ccccc1)c1ccccc1 | 13.8 µM
COc1ccc(Nc2ccnc(N3CCN(c4ccnc5cc(Cl)ccc45)CC3)n2)cc1 | 0.629 µM
COc1ccc2c(-c3ccnc(Nc4cccc(OC(F)(F)F)c4)n3)cnn2n1 | 2.55 µM
COc1ccc2c(c1)C(=O)c1c-2c(OCCN(C)C)nc2ccccc12 | 0.962 µM
C/C(=N\O)c1cccc(Nc2cc(-n3ccnc3)c3ccccc3n2)c1 | 13.8 µM
O=c1c2cc(F)ccc2sc2c(NCCCNCCO)nc3ccccc3c12 | 1.57 µM
O=C(NNS(=O)(=O)c1ccc(Cl)cc1Cl)c1cccnc1Nc1ccc(Cl)cc1 | 37.2 µM
COc1cccc(Oc2ccccc2NC(=O)CNC(=O)c2cccc3ccccc23)c1 | 1.8 µM

In: Lookup: GI50 / UO-31 renal / Cc1cc(C)c(C2CNCc3cc4c(cc32)CNCC4c2c(C)cc(C)cc2C)c(C)c1 (configuration not stated)
Out: 2.04 µg/mL

In: Also check "O=C1C(OCCOc2ccccc2)=C(OCCOc2ccccc2)C(=O)c2ccccc21"
Out: 12.2 µM

In: Next molecule up: CCN1C(=O)N(CC)C2C1NN=c1s/c(=C\c3ccc(F)cc3)c(=O)n12 (configuration not stated)
Out: 0.601 µM

In: Would you mind doing "COc1cc(C(=O)c2cc(C)c3[nH]c4ccc(O)cc4c3c2C)cc(OC)c1OC" as well?
Out: 0.269 µM

----------
- Tested on: HCT-116 colon
- experiment.summary: NCI tumour cell line growth inhibition, 48 h
measured.property: TGI (µM)
Respond with the bare value in µM.

O=C(/C=C/c1ccc(Cl)c(Cl)c1)c1cccc2ccccc12 | 15.2

Please find the next compound below.
In: Quick one: TGI of "C=C1[C@@H](O)O[C@H]2[C@H]1C[C@H](OC(C)=O)[C@]13C(=O)O[C@H]4C[C@](C)(O)[C@H]([C@H]41)C31C=C(C)[C@]2(O)O1" ?
Out: 38.2

----------
- Tested on: SF-295 CNS
- experiment.summary: NCI tumour cell line growth inhibition, 48 h
measured.property: TGI

O=C(Cc1nc2ccccc2o1)C(=O)Nc1cccc(C(F)(F)F)c1 | > 100 µM

In: Reported TGI, compound "Nc1ccc(Nc2cc(=O)[nH]c(=O)[nH]2)cc1Cl" : ____
Out: > 100 µM

In: Another compound to check: "N[C@H](COCc1ccccc1)c1ccccc1"
Out: 82.5 µM

In: # iterate: "N#CNc1nc(N)c(-c2ccc(Cl)cc2)c(C(=O)Nc2nccs2)n1"
Out: > 100 µM

In: Same question for O=C1c2c(Br)sc(Br)c2[C@@H](NC(=O)C(F)(F)F)C1Br (stereo partly drawn) please.
Out: 31.6 µM

In: Proceed to O=C(c1ccccc1)c1c(CC(O)c2ccncc2)n(C(=O)c2ccccc2)c2ccccc12 (stereo not drawn)
Out: 26 µM

In: Now try "O=C1C=C(O)C(=Cc2c(O)cc(O)cc2O)C(O)=C1" .
Out: > 100 µM

In: Here is the next compound: Cc1cccc(NC(=O)/C(=N\N)C(c2cnc3ccc([N+](=O)[O-])cc3n2)[N+](=O)[O-])c1C (stereo not drawn)
Out: > 100 µM

In: Same again, this time with CC(=O)OCC1OC(OCCCOP(=S)(OCCC#N)OCC2OC(n3ccc(N)nc3=O)C(OC(=O)c3ccccc3)C2OC(=O)c2ccccc2)C(OC(C)=O)C(OC(C)=O)C1OC(C)=O (stereo not drawn)
Out: > 100 µM

In: Now the same for "COc1ccc(CNc2cc(=O)n(C)c(=O)[nH]2)cc1"
Out: > 100 µM

----------
- Test system: CAKI-1 renal
- experiment.summary: NCI tumour cell line growth inhibition, 48 h
Reported values of TGI for individual entries

Cc1cnc2c(c1C)C(=O)c1ccccc1C2=O | > 100 µM
O=Nc1c(-c2c(O)[nH]c3ncccc23)[nH]c2ccccc12 | > 100 µM
O=Cc1ccc2c(c1I)OCO2 | > 100 µM
CCOC(=O)c1c[nH]c2ccc3c(c2c1=O)S(=O)(=O)CC3 (tested in a mixture with another compound) | > 100 µM
COc1cccc(/N=N/C(=NNC(=O)c2ccc(C)cc2)c2ccc(N(C)C)cc2)c1 | > 100 µM
CC1C=CC(OC(=O)C(C)(O)CCC(O)(C(=O)OC2CC(O)C(C(C)C)CC2(C)O)C(C)C)(C(C)C)CC1 (stereo not given) | 1.2 µM
CC1c2ccccc2CCN1c1ccc(CO)c(Cl)c1 (stereo not given) | 50.3 µM
COC(=O)C(C(=O)C(=O)Nc1ccc([N+](=O)[O-])cc1)c1nc2ccc([N+](=O)[O-])cc2[nH]c1=O (stereo not given) | > 100 µM
Oc1c(-c2cc(C(F)(F)F)[nH]n2)cc(Cl)c(OCc2ccc(Cl)cc2)c1-c1ccc(Cl)c(C(F)(F)F)c1 | 2.92 µM

Now for another entry.
In: Fill blank: measured TGI of the molecule "COc1ccc2c(-c3ccnc(Nc4cccc(OC(F)(F)F)c4)n3)cnn2n1" is ____.
Out: > 9.77 µM

----------
- Test system: M14 melanoma
- experiment.summary: NCI tumour cell line growth inhibition, 48 h; in the data active = GI50 below about 0.43 µM; inactive = the rest
Field 'call' accepts True (active), False (inactive)

Observe how each entry below is paired with its result.
N/C(=N\OC(=O)c1ccccc1)C(Cc1ccccc1)C(=O)NOC(=O)c1ccccc1 (centres undefined) | False
C[n+]1c2ccccc2nc2c(N)cc(N)cc21 | False
Cc1cc(C)c(C2CNCc3cc4c(cc32)CNCC4c2c(C)cc(C)cc2C)c(C)c1 (centres undefined) | False
Oc1cccc2c1NCCC2 | True
COC(=O)c1cc(-c2ccc(OC)c(OC)c2)[nH]c1N/N=C/c1c(Cl)cccc1Cl | False

In: Tell me the recorded outcome of this test for "COc1cc(-c2nn(-c3cccc(NC(=O)CCN4CCN(Cc5ccccc5)CC4)c3)cc2-c2ccncc2)ccc1Cl" .
Out: False

In: What about "CCC(=O)Nc1ccc(N2C(=O)/C(=C/c3ccc(OC)cc3)N=C2c2ccccc2)cc1" ?
Out: False

In: Check "CN1CCN(CCCCCN=c2cc3c(=O)n(CCCCCN4CCN(C)CC4)c(=O)c4c(NCCCCCN5CCN(C)CC5)cc5c(O)n(CCCCCN6CCN(C)CC6)c(=O)c2c5c4-3)CC1" too.
Out: False

In: Cool, now "O=C(Nc1ccccc1OC(=O)c1ccccc1)c1ccccc1"
Out: False

----------
- System: OVCAR-8 ovarian
- experiment.summary: NCI tumour cell line growth inhibition, 48 h
measured.property: TGI

Look over these answered cases.
COc1cc(-c2nn(-c3cccc(NC(=O)CCN4CCN(Cc5ccccc5)CC4)c3)cc2-c2ccncc2)ccc1Cl | 11.1 µM
O=C(O)CCNS(=O)(=O)c1ccc([N+](=O)[O-])cc1 | > 100 µM
C=CCOc1ccc(C2C(C(=O)OC)C(=O)CC(O)(c3ccccc3)C2C(=O)OC)cc1OC (stereo not given) | 50.4 µM
CSc1ccc(C2=NN(C(C)=O)C(c3ccc(-c4ccc(Cl)cc4)o3)C2)cc1 (stereo not given) | > 100 µM

In: Which TGI value belongs to COc1cccc(C2c3cc4c(cc3OC3COC(=O)C32)OCO4)c1OC (stereo not given) ?
Out: > 100 µM

In: Would you kindly repeat that for "C=C1CC[C@@H](C)[C@](C)(CCc2ccoc2)C/C=C\C=C/1C(=O)O" ?
Out: 48.8 µM

In: Next compound: "Clc1ccc2oc(CCc3ccccc3)nc2c1"
Out: > 100 µM

In: Again, but for "O=c1[nH]c2nc3ccccc3c(=O)n2/c1=C/c1ccco1"
Out: > 100 µM

In: Now try CC(C)(C)NC(=O)CCC1C(C(=O)NC(C)(C)C)C2(Cl)C(Cl)=C(Cl)C1(Cl)C2(Cl)Cl (stereo not given) .
Out: > 100 µM

In: Try "CSc1c(C#N)c(N)n(-c2ccc(Cl)cc2)c(=O)c1C#N" next.
Out: > 100 µM

In: Repeat with O=[N+]([O-])c1ccc(C(O)(C#CCN2CCCC2)c2ccccc2)cc1 (stereo not given)
Out: > 100 µM

In: Could you do the same for "CN1CCN(P2(=S)Oc3ccc4ccccc4c3-c3c(ccc4ccccc34)O2)CC1" , please?
Out: > 100 µM

In: Do the same for "Fc1ccc(/C=N/n2c(-c3ccc(F)c(Cl)c3)n[nH]c2=S)cc1" please
Out: > 100 µM

In: What do you get for CC(=O)OCC1OC(OCCCOP(=S)(OCCC#N)OCC2OC(n3ccc(N)nc3=O)C(OC(=O)c3ccccc3)C2OC(=O)c2ccccc2)C(OC(C)=O)C(OC(C)=O)C1OC(C)=O (stereo not given) ?
Out: > 100 µM

In: "O=c1[nH]c(Nc2nc3ccccc3[nH]2)nc(O)c1Cc1ccccc1" ?
Out: > 100 µM

In: Check Cc1cc(C)c(C2CNCc3cc4c(cc32)CNCC4c2c(C)cc(C)cc2C)c(C)c1 (stereo not given) too.
Out: 4.18 µg/mL

In: Record: "NNc1nnc(-c2nnc(NN)o2)o1"
Out: > 10 µM

In: Lookup "O=C(/C=C/c1ccc(Cl)c(Cl)c1)c1cccc2ccccc12"
Out: 4.74 µM

In: Repeat with "O=C1Cc2c([nH]c3ccc(C(=O)O)cc23)-c2ccccc2N1"
Out: > 100 µM

In: Note, next up: "O=C(NNS(=O)(=O)c1ccc(Cl)cc1Cl)c1cccnc1Nc1ccc(Cl)cc1"
Out: 74.9 µM
